target: human 5-HT2A receptor (Homo sapiens (Human)); assay: Radioligand binding ([3H]-ketanserin) to cloned receptors expressed in HEK-293 EBNA cells; conditions: HEK293 EBNA cell membranes expressing human 5-HT2A
Sequence (P28223 whole entry): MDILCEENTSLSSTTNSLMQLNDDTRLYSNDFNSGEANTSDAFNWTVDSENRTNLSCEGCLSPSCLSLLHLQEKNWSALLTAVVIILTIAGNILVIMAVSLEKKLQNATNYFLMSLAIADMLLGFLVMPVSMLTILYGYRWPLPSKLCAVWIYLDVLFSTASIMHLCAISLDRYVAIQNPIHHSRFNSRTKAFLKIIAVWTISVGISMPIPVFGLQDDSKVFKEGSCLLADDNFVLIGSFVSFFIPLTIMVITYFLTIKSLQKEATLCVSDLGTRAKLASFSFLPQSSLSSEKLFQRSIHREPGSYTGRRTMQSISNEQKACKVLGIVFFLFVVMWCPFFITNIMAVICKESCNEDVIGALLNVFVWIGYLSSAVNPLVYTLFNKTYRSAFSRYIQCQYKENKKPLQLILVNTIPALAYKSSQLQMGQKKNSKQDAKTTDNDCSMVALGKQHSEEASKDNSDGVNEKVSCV
MEASUREMENT_NAME: Ki (µM)
Numbers only, in µM.

Reference set (5 entries):
MOLECULE	TEST_TARGET	MEASUREMENT_NAME	U	TEST_RESULT
O=C(N[C@H]1CC[C@H](CCN2CCC(c3cccc4c3CCO4)CC2)CC1)c1ccnc2ccccc12 [Example 40]	human 5-HT2A receptor (Homo sapiens (Human))	Ki	µM	0.0242
O=C(N[C@H]1CC[C@H](CCN2CCC(c3cccc4c3CCO4)CC2)CC1)C1CCC1 [Example 26]	human 5-HT2A receptor (Homo sapiens (Human))	Ki	µM	0.0204
CC[C@@H](O)CC(=O)N[C@H]1CC[C@H](CCN2CCC(c3cccc4c3CCO4)CC2)CC1 [Example 81]	human 5-HT2A receptor (Homo sapiens (Human))	Ki	µM	0.123
CN(C)C(=O)N[C@H]1CC[C@H](CCN2CCC(c3cccc4c3CCO4)CC2)CC1 [Example 83]	human 5-HT2A receptor (Homo sapiens (Human))	Ki	µM	0.121
Cc1cc(C(=O)N[C@H]2CC[C@H](CCN3CCC(c4cccc5c4CCO5)CC3)CC2)on1 [Example 41]	human 5-HT2A receptor (Homo sapiens (Human))	Ki	µM	0.0364

Lab note: each molecule below needs its Ki filled in.
1. CC(C)(C)c1ccc(C(=O)N[C@H]2CC[C@H](CCN3CCC(c4cccc5c4CCO5)CC3)CC2)cc1 [Example 71]
2. CS(=O)(=O)CC(=O)N[C@H]1CC[C@H](CCN2CCC(c3cccc4occc34)CC2)CC1 [Example 11]

1: 0.0286; 2: 0.0053

Quick check: Ki of O=C(N[C@H]1CC[C@H](CCN2CCC(c3cccc4c3CCO4)CC2)CC1)C1(O)CCC1 [Example 39] ?
0.0123

---

Please enter Y where melting point is greater than or equal to 200 °C, and N where it is lower.

MOLECULE	LABEL
CN1CCN(c2ccc(C(=O)N[C@H]3CC[C@H](CCN4CCC(c5cccc6c5CCO6)CC4)CC3)cc2)CC1 [Example 44]	Y
COCC(=O)N[C@H]1CC[C@H](CCN2CCC(c3cccc4occc34)CC2)CC1 [Example 10]	N

From here, focus on the item given below.
Can CCC(=O)N[C@H]1CC[C@H](CCN2CCC(c3cccc4c3CCO4)CC2)CC1 [Example 13] be said to have melting point at or above 200 °C?
N

---

target: human D3 receptor (Homo sapiens (Human)); assay: Radioligand binding ([3H]-spiperone) to cloned receptors expressed in HEK-293 EBNA cells; settings: HEK293 EBNA cell membranes expressing human D3
Sequence (P35462 whole entry): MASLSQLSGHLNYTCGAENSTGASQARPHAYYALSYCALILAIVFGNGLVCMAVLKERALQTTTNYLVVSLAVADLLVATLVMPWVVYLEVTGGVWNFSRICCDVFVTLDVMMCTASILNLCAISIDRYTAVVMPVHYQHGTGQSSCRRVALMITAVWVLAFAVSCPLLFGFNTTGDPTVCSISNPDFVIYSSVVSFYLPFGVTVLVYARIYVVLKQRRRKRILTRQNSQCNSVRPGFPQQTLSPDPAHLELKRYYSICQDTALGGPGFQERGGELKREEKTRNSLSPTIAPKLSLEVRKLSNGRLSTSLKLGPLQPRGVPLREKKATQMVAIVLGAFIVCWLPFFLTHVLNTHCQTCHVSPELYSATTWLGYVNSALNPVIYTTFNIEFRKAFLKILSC
Provide the recorded Ki for the entries that follow.
Dear colleague, please send the value followed by its unit.

COMPOUND	Ki
CS(=O)(=O)CC(=O)N[C@H]1CC[C@H](CCN2CCC(c3cccc4occc34)CC2)CC1 [Example 11]	2.3 nM
CC(C)(C)c1ccc(C(=O)N[C@H]2CC[C@H](CCN3CCC(c4cccc5c4CCO5)CC3)CC2)cc1 [Example 71]	13.6 nM
CN(C)C(=O)N[C@H]1CC[C@H](CCN2CCC(c3cccc4c3CCO4)CC2)CC1 [Example 83]	44.2 nM
O=C(CC1COC1)N[C@H]1CC[C@H](CCN2CCC(c3cccc4c3CCO4)CC2)CC1 [Example 80]	4.27 nM
CC[C@@H](O)CC(=O)N[C@H]1CC[C@H](CCN2CCC(c3cccc4c3CCO4)CC2)CC1 [Example 81]	10 nM

Below is a list of compounds. For each, state its recorded Ki.
1. O=C(CC(F)(F)F)N[C@H]1CC[C@H](CCN2CCC(c3cccc4c3CCO4)CC2)CC1 [Example 18]
2. CN(C)C(=O)CCC(=O)N[C@H]1CC[C@H](CCN2CCC(c3cccc4c3CCO4)CC2)CC1 [Example 63]
3. CC(C)C(=O)N[C@H]1CC[C@H](CCN2CCC(c3cccc4c3CCO4)CC2)CC1 [Example 23]

4.4 nM
15.5 nM
8 nM

---

target: human D2 receptor (Homo sapiens (Human), UniProt P14416); test: Radioligand binding ([3H]-spiperone) to cloned receptors expressed in HEK-293 EBNA cells; conditions: HEK293 EBNA cell membranes expressing human D2
Sequence (P14416 whole entry): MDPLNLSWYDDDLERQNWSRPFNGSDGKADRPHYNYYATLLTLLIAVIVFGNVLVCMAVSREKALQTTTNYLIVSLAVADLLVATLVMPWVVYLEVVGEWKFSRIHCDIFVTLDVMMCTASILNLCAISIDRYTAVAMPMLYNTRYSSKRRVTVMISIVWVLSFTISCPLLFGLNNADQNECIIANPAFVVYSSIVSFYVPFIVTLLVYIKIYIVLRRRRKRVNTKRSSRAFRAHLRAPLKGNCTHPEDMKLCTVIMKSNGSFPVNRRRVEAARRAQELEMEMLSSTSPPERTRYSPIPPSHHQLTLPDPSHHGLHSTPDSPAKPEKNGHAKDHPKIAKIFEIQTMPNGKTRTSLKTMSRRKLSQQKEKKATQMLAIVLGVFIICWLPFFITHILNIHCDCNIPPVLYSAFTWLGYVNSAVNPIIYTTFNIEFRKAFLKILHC
Kindly state log10 Ki for each of the entries shown.
Hi team, quick reminder: these entries are log10 of Ki (nM).

Would you please look over these solved cases?
COMPOUND	log10 Ki
O=C(N[C@H]1CC[C@H](CCN2CCC(c3ccc(F)c4occc34)CC2)CC1)C1CCOCC1	2.56
CC(C)CCC(=O)N[C@H]1CC[C@H](CCN2CCC(c3cccc4c3CCO4)CC2)CC1	3.03
O=C(N[C@H]1CC[C@H](CCN2CCC(c3cccc4c3CCO4)CC2)CC1)c1ccc(N2CCOCC2)nc1	2.96
O=C(CC1CC1)N[C@H]1CC[C@H](CCN2CCC(c3cccc4c3CCO4)CC2)CC1	2.43
CCC(=O)N[C@H]1CC[C@H](CCN2CCC(c3cccc4occc34)CC2)CC1	1.96
O=C(CC1COCCO1)N[C@H]1CC[C@H](CCN2CCC(c3cccc4occc34)CC2)CC1 (mixture of isomers)	2.34
COC(CC(=O)N[C@H]1CC[C@H](CCN2CCC(c3cccc4c3CCO4)CC2)CC1)OC	2.56

Attention now turns to another entry.
// log10 Ki lookup, key: O=C(CC1CCOCC1)N[C@H]1CC[C@H](CCN2CCC(c3cccc4c3CCO4)CC2)CC1
2.81

---

What melting point was measured for each of the following?
Numbers only, in °C.

COMPOUND	melting point (°C)
O=C(N[C@H]1CC[C@H](CCN2CCC(c3cccc4c3CCO4)CC2)CC1)C1CCCO1 (mixture of isomers)	160
O=C(N[C@H]1CC[C@H](CCN2CCC(c3cccc4c3CCO4)CC2)CC1)c1ccc(F)cc1	213
COCCC(=O)N[C@H]1CC[C@H](CCN2CCC(c3cccc4c3CCO4)CC2)CC1	182

Please supply melting point for each of the following items, keeping them in order.
1. Cc1cc(CC(=O)N[C@H]2CC[C@H](CCN3CCC(c4cccc5c4CCO5)CC3)CC2)on1
2. O=C(N[C@H]1CC[C@H](CCN2CCC(c3cccc4c3CCO4)CC2)CC1)c1ccnc2ccccc12
3. CS(=O)(=O)c1ccc(C(=O)N[C@H]2CC[C@H](CCN3CCC(c4cccc5c4CCO5)CC3)CC2)s1
4. O=C(N[C@H]1CC[C@H](CCN2CCC(c3cccc4c3CCO4)CC2)CC1)C1CCC1
5. O=C(N[C@H]1CC[C@H](CCN2CCC(c3cccc4c3CCO4)CC2)CC1)c1ccc(N2CCOCC2)nc1

[188, 211, 255, 197, 228]

---

Lab note: Ki readings collected with UniProt:P28223 for the following compounds.
In your response, the unit should come after the numeric value.

A selection of reference data follows.
COMPOUND	Ki
O=C(N[C@H]1CC[C@H](CCN2CCC(c3cccc4c3CCO4)CC2)CC1)c1ccc(Cl)cc1Cl [Example 89]	31.5 nM
O=C(CC1CCOCC1)N[C@H]1CC[C@H](CCN2CCC(c3ccc(F)c4occc34)CC2)CC1 [Example 66]	30.9 nM
O=C(CC1CCOCC1)N[C@H]1CC[C@H](CCN2CCC(c3cccc4c3CCO4)CC2)CC1 [Example 8]	38.6 nM
CCS(=O)(=O)N[C@H]1CC[C@H](CCN2CCC(c3cccc4c3CCO4)CC2)CC1 [Example 48]	34.8 nM
O=C(N[C@H]1CC[C@H](CCN2CCC(c3cccc4c3CCO4)CC2)CC1)c1ccc(N2CCCCC2)cc1 [Example 56]	137 nM

Quick batch: Ki for everything below.
1. O=C(CCC(F)(F)F)N[C@H]1CC[C@H](CCN2CCC(c3cccc4c3CCO4)CC2)CC1 [Example 74]
2. O=C(C[C@@H]1COCCO1)N[C@H]1CC[C@H](CCN2CCC(c3cccc4c3CCO4)CC2)CC1 [Example 21]

1. 119 nM
2. 27.9 nM

Entry CC(=O)N[C@H]1CC[C@H](CCN2CCC(c3cccc4c3CCO4)CC2)CC1 [Example 5] has what Ki?
37.2 nM

---

// Ki collected for human 5-HT2A receptor (Homo sapiens (Human), UniProt P28223)
Give bare numbers, in nM.

Give Ki for all molecules that follow.
1. O=C(CC1COC1)N[C@H]1CC[C@H](CCN2CCC(c3cccc4c3CCO4)CC2)CC1 [Example 80]
2. CCC(=O)N[C@H]1CC[C@H](CCN2CCC(c3cccc4occc34)CC2)CC1 [Example 9]
3. CC(C)(O)CC(=O)N[C@H]1CC[C@H](CCN2CCC(c3cccc4c3CCO4)CC2)CC1 [Example 72]
4. O=C(N[C@H]1CC[C@H](CCN2CCC(c3cccc4c3CCO4)CC2)CC1)c1ccc(N2CCOCC2)nc1 [Example 46]
5. O=C(N[C@H]1CC[C@H](CCN2CCC(c3cccc4c3CCO4)CC2)CC1)C1CCOC1 (mixture of isomers) [Example 52]

1. 55.5
2. 5.6
3. 56.1
4. 27.6
5. 24.6
